Catalogue of Kd values
SUBJECT_OF_TEST: recombinant human or murine heat shock protein 70 (hsp70)
Type: binding
COND: pH 8; read-out: Kd, peptide (epitope), heat shock protein-binding domain: None
Value expressed in µM; do not type the unit.

1) TLGIVCPI [HPV16 E7 (86-93), reference compound]; 187
2) YMDGTMSQV [Tyrosinase (“YMD”), reference compound]; 204
3) IMDQVPFSV [Gp100 (“IMD”), reference compound]; 2560
4) YMLDLQPETT [HPV16 E7 (11-20), reference compound]; 91
5) SIINFEKL [OVA, reference compound]; 279

Consider the additional sequence presented here.
# input Entry under review: ALFDIESKV [PSMA P2, reference compound] . Reported Kd?
# output 145
